assay: Physical chemistry of trazodone; type: physicochemical; settings: Monoprotic Base

Structure string | pKa
O=c1n(CCCN2CCN(c3cccc(Cl)c3)CC2)nc2ccccn12 | 6.61

* * *

Reported MDI (for 6 years aged children) is given for each of the following compounds.
assay: Toxicological Risk Assessment of excipients in oral drops (MDI vs ADI); parameters: species or system children; conditions: Trazodone HCl 3.0% oral solution; Maximum Daily Therapeutic Dose up to 0.5 mg/kg/day

Compound | Unit of measure | MDI (for 6 years aged children)
CCCOC(=O)c1cc(O)c(O)c(O)c1 [Propyl gallate] | mg/kg/day | 0.02
CC(O)CO (stereo not drawn) | mg/kg/day | 5.00
O=C([O-])CN(CCN(CC(=O)[O-])CC(=O)O)CC(=O)O.[Na+].[Na+] [Disodium edetate] | mg/kg/day | 0.01
[Na+].[OH-] [Sodium hydroxide] | mg/kg/day | 0.02
OC[C@H]1O[C@H](O[C@]2(CCl)O[C@H](CCl)[C@@H](O)[C@@H]2O)[C@H](O)[C@@H](O)[C@H]1Cl | mg/kg/day | 0.03
O=C(O)CC(O)(CC(=O)O)C(=O)O [Citric acid anhydrous] | mg/kg/day | 0.08

* * *

assay: Caco-2 permeability; assay type: in vitro ADME; conditions: human; Caco-2 cells; read-out: mean Papp

Structure string | Unit of measure | Papp
O=c1n(CCCN2CCN(c3cccc(Cl)c3)CC2)nc2ccccn12 | ×10⁻⁶ cm/s | 24.2
